growth inhibition: recorded values
Assay: NCI Yeast Anticancer Drug Screen. Data for the rad50 strain (AID 155);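 also: 0% = growth of vehicle-only cultures of the same strain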
Details: S. cerevisiae rad50 strain growth inhibition; at 50.0 µM; active compounds read high
About 79,000 compounds went through this panel and 15% of them were active in at least one assay; those are over-represented in the sample as a whole.
The reply should be a number in %, with the unit left off.

Take a look at these entries with their results.
# molecule, experimental value
data = [
    ("O=C(O)c1cccc(C#Cc2ccccc2)c1", 16.7),
    ("COC(=O)CCC(=O)c1ccc2c(c1)CC1(C2)Cc2ccc(C(=O)CCC(=O)OC)cc2C1", -1.45),
    ("COc1cc(C2C3=C(COC3=O)Oc3cc4c(cc32)OCO4)cc(OC)c1OC(C)=O (stereo not given)", -15.5),
    ("O=C(CC(=O)n1nc(-c2ccccc2)c(N=Nc2ccc(Cl)cc2)c1-c1ccccc1)Nc1ccc(Cl)cc1", -6.75),
    ("N#CC12CC3CC(CC(C3)C1)C2", -3.9),
    ("CC(C)(C)OC(=O)NCC(O)CNC(=O)OC(C)(C)C", -1.25),
    ("CSc1c(C(=O)Nc2ccc(C)cc2)c(N)nn1-c1ccccc1", 20.8),
    ("CSc1nc(N)c(NS(=O)(=O)c2ccccc2)c(=O)[nH]1", -10.6),
    ("Clc1cc(OCC23CC4CC(CC(C4)C2)C3)nc(OCC23CC4CC(CC(C4)C2)C3)n1", -35.1),
]

# input molecule: CC(C)=CCC(C)c1ccccn1 (stereo not given) ; wanted: its growth inhibition
-2.45

###

Assay: NCI Yeast Anticancer Drug Screen. Data for the mec2-1 strain (AID 157)
Conditions: S. cerevisiae mec2-1 strain, at 50.0 µM
Protocol: Growth inhibition of yeast strains with defined genetic alterations is measured as a screen for potential anti-cancer activity. Selected strains with alterations in DNA damage repair or cell cycle control were exposed to compounds and growth inhibition was measured relative to vehicle treated controls. The strain used in this assay is mec2-1
About 79,000 compounds went through this panel and 15% of them were active in at least one assay; those are over-represented in the sample as a whole. The source made the active and inactive calls. Cut-off read from the data, not from the text of the source: active = growth inhibition above about 70%; inactive = the rest.
Hi! Could you answer with just one of these? 1.0 (active), 0.0 (inactive)

# example entries with known answers
# compound, qualitative label
rows = [
    ("O=C(OCc1ccccc1CN1CCCC1)c1ccc(Br)cc1", 0.0),
    ("CCCCCCC(/C=N/Nc1ccccn1)=C\\c1ccccc1", 0.0),
]

Dear all, I need the recorded test outcome for CC(C)O[Si](OC(C)C)(OC(C)C)OC(C)C , thank you.
0.0

Dear all, I need the recorded test outcome for CCC(CCC(=O)O)C1CCCCC1 (stereo not drawn) , thank you.
0.0

Dear all, I need the recorded test outcome for Nc1nc2c(c(=O)[nH]1)C(c1ccccc1)C(c1ccccc1)C2 (stereo not drawn) , thank you.
0.0

Dear all, I need the recorded test outcome for CCCCCCCCCCCCOC1C(COCCN2CCCCC2)OC2OC(C)(C)OC21 (stereo not drawn) , thank you.
1.0

Dear all, I need the recorded test outcome for CC1CS(=O)(=O)CC(C)S1(=O)=O (stereo not drawn) , thank you.
0.0

Dear all, I need the recorded test outcome for Cc1ccc(-n2nc3c(c(C#N)c2=O)-c2ccccc2C3=O)cc1 , thank you.
0.0

###

Experiment: NCI Yeast Anticancer Drug Screen. Data for the cln2 rad14 strain (AID 165);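 also: 0% = growth equal to vehicle treated cultures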
Details: S. cerevisiae cln2 rad14 strain, at 50.0 µM, active compounds read high
The panel holds about 79,000 compounds, 15% with a hit somewhere; the sample as a whole holds those more often.
growth inhibition: recorded values
The reply should be a number in %, with the unit left off.

# input compound: S=C(NCCNC(=S)SCc1c(Cl)c(Cl)c(Cl)c(Cl)c1Cl)SCc1c(Cl)c(Cl)c(Cl)c(Cl)c1Cl ; wanted: its growth inhibition
-8.85

# input compound: O=CC1N=C(Cc2ccccc2)OC1=O (stereo not drawn) ; wanted: its growth inhibition
-4.55

# input compound: OC1CCCN(CCNN2CCCC2)C1 (stereo not drawn) ; wanted: its growth inhibition
31.1

# input compound: Nc1nc(N)c2cc(CNc3ccc(C(=O)NC(C(=O)O)C(=O)O)cc3)ccc2n1 ; wanted: its growth inhibition
-16.6

# input compound: CCc1ccc(N=Nc2c(F)c(F)c(N(C)C)c(F)c2F)cc1 ; wanted: its growth inhibition
4.1

# input compound: C=CCOC(=O)C1CCCCC1C(=O)OCC=C (stereo not drawn) ; wanted: its growth inhibition
3.3

# input compound: COc1ccc(-n2c(=O)c(N=Nc3ccc(Cl)cc3)c(O)n(-c3ccc(I)cc3)c2=S)cc1 ; wanted: its growth inhibition
-3.7

###

growth inhibition: recorded values
Test: NCI Yeast Anticancer Drug Screen. Data for the mec2-1 strain (AID 157)
Conditions: S. cerevisiae mec2-1 strain, at 50.0 µM, active compounds read high
The panel holds about 79,000 compounds, 15% with a hit somewhere; the sample as a whole holds those more often.
The reply should be a number in %, with the unit left off.

Take a look at these entries with their results.
# molecule, units label, experimental value
records = [
    ("Cc1ccc(-n2cc(-c3ccc(Cl)cc3)c3c(=N)n(N)cnc32)cc1", "%", -14.2),
    ("Nc1ccc(S(=O)(=O)N/N=C/c2ccc(O)cc2)cc1", "%", -21.4),
    ("NC(=O)c1cccc(NC=O)c1", "%", 6),
    ("COC(=O)CCC1CCCC(CCC(=O)OC)C1=O (stereo not given)", "%", 4.55),
    ("CCCCCCCCCCCCCCCC[N+](C)(C)CCNC(C)=O", "%", 99.6),
]

# input molecule: CN(Cc1ccccc1)C(OCc1ccccc1)c1ccccc1 (stereo not given) ; wanted: its growth inhibition
-13

# input molecule: C(=Nc1ccc2c(c1)Cc1ccccc1-2)c1ccc2c(c1)OCO2 ; wanted: its growth inhibition
-10.1

# input molecule: CC(Sc1ccc([N+](=O)[O-])cn1)C(=O)O (stereo not given) ; wanted: its growth inhibition
12.9

###

Experiment: NCI Yeast Anticancer Drug Screen. Data for the mlh1 rad18 strain (AID 175)
Details: S. cerevisiae mlh1 rad18 strain growth inhibition; at 50.0 µM
The panel holds about 79,000 compounds, 15% with a hit somewhere; the sample as a whole holds those more often. Activity calls are given as the source filed them. Rule as the data show it: active = growth inhibition above about 70%; inactive = the rest.
Hi! Could you answer with just one of these? 1 = active, -1 = inactive

# example entries with known answers
# molecule, qualitative label
measured = [
    ("COC(=O)[C@]1(NC(=O)c2ccccc2)C[C@H]1C=O", -1),
    ("CNC(=O)OCc1c(COC(=O)NC)c2n(c1C)CSC2", -1),
    ("CCCCOc1ccc2nc(C)cc(N/N=C/c3ccc(OC)c4ccccc34)c2c1", -1),
]

Dear all, I need the recorded test outcome for NC(=O)/C(=C\c1ccc(OCc2ccccc2)c(OCc2ccccc2)c1)NC(=O)c1ccccc1 , thank you.
-1

Dear all, I need the recorded test outcome for c1ccc(C(Sc2c[nH]c3ccccc23)(c2ccccc2)c2ccccc2)cc1 (tested in a mixture with another compound) , thank you.
-1

Dear all, I need the recorded test outcome for O=C(CC1C(=O)Nc2ccccc2S1=O)Nc1ccc(Cl)cc1 (centres undefined) , thank you.
-1

Dear all, I need the recorded test outcome for CCCCCCCCCCCCCCCC(=O)OC/C=C/COC(=O)c1ccccc1 , thank you.
-1

Dear all, I need the recorded test outcome for NC1=NC(c2ccccc2)C2=C(N1)C(=O)N(c1ccc(Br)cc1)C2 (centres undefined) , thank you.
-1

Dear all, I need the recorded test outcome for CN/N=C(/Cc1occc(=O)c1O)C(=O)Nc1ccc(C)c(C)c1 , thank you.
-1

Dear all, I need the recorded test outcome for COc1cc2nncc(SCc3ccc(Cl)cc3)c2cc1OC , thank you.
-1

Dear all, I need the recorded test outcome for CN(C(=O)c1ccco1)C(=S)N1CCN(c2ccccc2)CC1 , thank you.
-1

###

Test: NCI Yeast Anticancer Drug Screen. Data for the sgs1 mgt1 strain (AID 161);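 also: 0% = growth of cultures given vehicle only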
Conditions: S. cerevisiae sgs1 mgt1 strain, at 50.0 µM, active compounds read high
Compounds without any hit were thinned out: in the full panel of roughly 79,000, 15% have a hit.
growth inhibition: recorded values
The reply should be a number in %, with the unit left off.

Take a look at these entries with their results.
# molecule, units label, experimental value
rows = [
    ("Cc1cc2c(=O)c3ccccc3oc2c(C(=O)O)c1C", "%", -50.6),
    ("CN(N=O)C(=O)NCc1ccc(Cl)cc1", "%", 17.6),
    ("c1ccc(Cc2cc(-c3cc(Cc4ccccc4)[nH]n3)n[nH]2)cc1", "%", 19.4),
]

# input molecule: NC(C1SCCS1)C(O)C(O)C(O)CO (stereo not drawn) ; wanted: its growth inhibition
-1.9

# input molecule: Cc1c(C)c(C)c(CNNC(=S)Nc2cccc(Cl)c2)c(C)c1C ; wanted: its growth inhibition
-1.35

# input molecule: CCOC(=O)C1=C(C)Oc2cc3c(cc2C1c1cc(OC)c(O)c(OC)c1)OCO3 (stereo not drawn) ; wanted: its growth inhibition
38.5

# input molecule: CCOC(=O)/C(=C\c1ccccc1)C(=O)O ; wanted: its growth inhibition
-6.25

# input molecule: COc1ccc(CCNC(=O)CC2CCN(C)CC2)cc1OC ; wanted: its growth inhibition
10.2

# input molecule: COc1ccc(CC2COC(=O)C2Cc2ccc(OC)c(OC)c2)cc1OC (stereo not drawn) ; wanted: its growth inhibition
-17.6

# input molecule: O=S(=O)(O)c1cc(S(=O)(=O)O)c2c(Nc3ccnc4ccccc34)ccc(S(=O)(=O)O)c2c1 ; wanted: its growth inhibition
-19.2

# input molecule: CC(C)(C)c1cc2ccc(C(N)=O)cc2c(=O)[nH]1 ; wanted: its growth inhibition
-1.65

# input molecule: [O-][n+]1cccc(CO)c1 ; wanted: its growth inhibition
-25.1

# input molecule: O=C(O)/C=C/C=C/c1ccc(Cl)cc1 ; wanted: its growth inhibition
4.3

# input molecule: O=C(Nc1cc(Cl)c(I)c(Cl)c1)C(F)(F)F ; wanted: its growth inhibition
96.8
